- PROTOCOL_TEXT: self-splicing fitness, log relative to wild type (ln ratio); higher = more splicing; Tetrahymena group I intron in knt gene, E. coli kanamycin selection, DiMSum; sequences stand for … in CUCUCU…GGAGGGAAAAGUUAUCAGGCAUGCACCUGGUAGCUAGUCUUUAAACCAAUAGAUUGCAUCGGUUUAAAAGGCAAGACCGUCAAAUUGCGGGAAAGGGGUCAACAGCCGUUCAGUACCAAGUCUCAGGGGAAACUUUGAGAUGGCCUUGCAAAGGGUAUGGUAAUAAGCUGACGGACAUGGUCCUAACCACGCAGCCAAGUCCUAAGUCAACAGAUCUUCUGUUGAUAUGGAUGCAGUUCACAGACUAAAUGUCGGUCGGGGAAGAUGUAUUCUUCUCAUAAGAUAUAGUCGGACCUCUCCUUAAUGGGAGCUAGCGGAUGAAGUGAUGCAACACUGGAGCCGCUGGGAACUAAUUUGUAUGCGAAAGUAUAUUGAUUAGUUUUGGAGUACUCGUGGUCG;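 note: selection with 25 µg/mL kanamycin versus none on LB agar overnight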
- DETAILS: 30 °C
// values below are reported self-splicing fitness (ln)
Answer as a number with no unit attached.

Would you please look over these solved cases?
item_sequence=CAGCAGCAAUAUUACGGUGG experimental_result=-1.17
item_sequence=CUAUAGCAAUAUUACGGGCC experimental_result=-1.54
item_sequence=GAAAAGCAAUAUUACGGAAC experimental_result=-2.14
item_sequence=UAUGAGCAAUAUUACGCCCA experimental_result=-2.3
item_sequence=UUGGAGCAAUAUUACGUGUG experimental_result=-3.71

Data request: Record request: self-splicing fitness (ln) value, item AACAAGCAAUAUUACGUCCU
Data returned: 0.214

Data request: Record request: self-splicing fitness (ln) value, item GCACAGCAAUAUUACGAUUC
Data returned: -0.739

Data request: Record request: self-splicing fitness (ln) value, item AUAGAGCAAUAUUACGUGAG
Data returned: -3.77

Data request: Record request: self-splicing fitness (ln) value, item CCCGAGCAAUAUUACGCCGA
Data returned: -3.02

Data request: Record request: self-splicing fitness (ln) value, item UCUAAGCAAUAUUACGUAUA
Data returned: -2.55

Data request: Record request: self-splicing fitness (ln) value, item CGUUAGCAAUAUUACGAGCC
Data returned: -2.52

Data request: Record request: self-splicing fitness (ln) value, item CUGCAGCAAUAUUACGAUCA
Data returned: -3.57

Data request: Record request: self-splicing fitness (ln) value, item UUCUAGCAAUAUUACGAGAA
Data returned: -2.54

Data request: Record request: self-splicing fitness (ln) value, item AAUUAGCAAUAUUACGUUCC
Data returned: -3

Data request: Record request: self-splicing fitness (ln) value, item CAUCAGCAAUAUUACGGCCG
Data returned: -0.131

Data request: Record request: self-splicing fitness (ln) value, item ACUAAGCAAUAUUACGCGAC
Data returned: -2.71

###

- PROTOCOL_TEXT: self-splicing fitness, log relative to wild type (ln ratio); higher = more splicing; Tetrahymena group I intron in knt gene, E. coli kanamycin selection, DiMSum; sequences stand for … in CUCUCU…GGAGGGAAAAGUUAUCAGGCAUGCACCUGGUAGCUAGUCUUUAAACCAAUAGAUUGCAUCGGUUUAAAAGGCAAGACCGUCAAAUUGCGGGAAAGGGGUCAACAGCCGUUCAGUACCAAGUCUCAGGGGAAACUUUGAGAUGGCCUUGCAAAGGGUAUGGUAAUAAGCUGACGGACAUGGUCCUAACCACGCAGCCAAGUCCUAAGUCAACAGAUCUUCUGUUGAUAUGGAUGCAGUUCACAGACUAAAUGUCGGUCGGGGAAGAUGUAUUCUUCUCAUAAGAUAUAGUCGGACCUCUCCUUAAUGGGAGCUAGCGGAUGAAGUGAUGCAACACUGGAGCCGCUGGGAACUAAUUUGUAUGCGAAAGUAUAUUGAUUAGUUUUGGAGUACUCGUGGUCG
- DETAILS: 30 °C
// values below are reported self-splicing fitness (ln)
Answer as a number with no unit attached.

Would you please look over these solved cases?
item_sequence=ACUUAGCAAUAUUACGAUCU measure="self-splicing fitness (ln)" experimental_result=-0.0945
item_sequence=GCAUAGCAAUAUUACGGAGU measure="self-splicing fitness (ln)" experimental_result=-3.52
item_sequence=UCUCAGCAAUAUUACGUGCC measure="self-splicing fitness (ln)" experimental_result=-3.38
item_sequence=UUGUAGCAAUAUUACGACCA measure="self-splicing fitness (ln)" experimental_result=-0.463
item_sequence=UAUUAGCAAUAUUACGUAAU measure="self-splicing fitness (ln)" experimental_result=-3.24
item_sequence=AUUGAGCAAUAUUACGCCUA measure="self-splicing fitness (ln)" experimental_result=-1.99

In the following, a different sequence is considered.
Data request: Record request: self-splicing fitness (ln) value, item UUGCAGCAAUAUUACGUGGU
Data returned: -2.14

Origin of the recorded values: the supplement of paper PMC7877785
